- Experimental Protocol: Clearance rate in rat was determined
- Format: ADME, organism-based
- Measurement Conditions: plasma, read-out: Clp
Exercise: state measured clearance for each of the compounds provided.
State the answer as a number, implicitly in mL/min/kg.

Ask | Using the record for O=C(c1ccccc1OCc1csc(-c2ccc(Cl)cc2)n1)N1CCCC1 , state its measured clearance.
Reply | 627

Ask | Using the record for COc1cccc(C(=O)N2CCCC2)c1OCc1csc(-c2ccc(Cl)cc2)n1 , state its measured clearance.
Reply | 101

====

- Experimental Target: Sodium channel protein type 9 subunit alpha (Homo sapiens)
- Sequence (Q15858 whole entry): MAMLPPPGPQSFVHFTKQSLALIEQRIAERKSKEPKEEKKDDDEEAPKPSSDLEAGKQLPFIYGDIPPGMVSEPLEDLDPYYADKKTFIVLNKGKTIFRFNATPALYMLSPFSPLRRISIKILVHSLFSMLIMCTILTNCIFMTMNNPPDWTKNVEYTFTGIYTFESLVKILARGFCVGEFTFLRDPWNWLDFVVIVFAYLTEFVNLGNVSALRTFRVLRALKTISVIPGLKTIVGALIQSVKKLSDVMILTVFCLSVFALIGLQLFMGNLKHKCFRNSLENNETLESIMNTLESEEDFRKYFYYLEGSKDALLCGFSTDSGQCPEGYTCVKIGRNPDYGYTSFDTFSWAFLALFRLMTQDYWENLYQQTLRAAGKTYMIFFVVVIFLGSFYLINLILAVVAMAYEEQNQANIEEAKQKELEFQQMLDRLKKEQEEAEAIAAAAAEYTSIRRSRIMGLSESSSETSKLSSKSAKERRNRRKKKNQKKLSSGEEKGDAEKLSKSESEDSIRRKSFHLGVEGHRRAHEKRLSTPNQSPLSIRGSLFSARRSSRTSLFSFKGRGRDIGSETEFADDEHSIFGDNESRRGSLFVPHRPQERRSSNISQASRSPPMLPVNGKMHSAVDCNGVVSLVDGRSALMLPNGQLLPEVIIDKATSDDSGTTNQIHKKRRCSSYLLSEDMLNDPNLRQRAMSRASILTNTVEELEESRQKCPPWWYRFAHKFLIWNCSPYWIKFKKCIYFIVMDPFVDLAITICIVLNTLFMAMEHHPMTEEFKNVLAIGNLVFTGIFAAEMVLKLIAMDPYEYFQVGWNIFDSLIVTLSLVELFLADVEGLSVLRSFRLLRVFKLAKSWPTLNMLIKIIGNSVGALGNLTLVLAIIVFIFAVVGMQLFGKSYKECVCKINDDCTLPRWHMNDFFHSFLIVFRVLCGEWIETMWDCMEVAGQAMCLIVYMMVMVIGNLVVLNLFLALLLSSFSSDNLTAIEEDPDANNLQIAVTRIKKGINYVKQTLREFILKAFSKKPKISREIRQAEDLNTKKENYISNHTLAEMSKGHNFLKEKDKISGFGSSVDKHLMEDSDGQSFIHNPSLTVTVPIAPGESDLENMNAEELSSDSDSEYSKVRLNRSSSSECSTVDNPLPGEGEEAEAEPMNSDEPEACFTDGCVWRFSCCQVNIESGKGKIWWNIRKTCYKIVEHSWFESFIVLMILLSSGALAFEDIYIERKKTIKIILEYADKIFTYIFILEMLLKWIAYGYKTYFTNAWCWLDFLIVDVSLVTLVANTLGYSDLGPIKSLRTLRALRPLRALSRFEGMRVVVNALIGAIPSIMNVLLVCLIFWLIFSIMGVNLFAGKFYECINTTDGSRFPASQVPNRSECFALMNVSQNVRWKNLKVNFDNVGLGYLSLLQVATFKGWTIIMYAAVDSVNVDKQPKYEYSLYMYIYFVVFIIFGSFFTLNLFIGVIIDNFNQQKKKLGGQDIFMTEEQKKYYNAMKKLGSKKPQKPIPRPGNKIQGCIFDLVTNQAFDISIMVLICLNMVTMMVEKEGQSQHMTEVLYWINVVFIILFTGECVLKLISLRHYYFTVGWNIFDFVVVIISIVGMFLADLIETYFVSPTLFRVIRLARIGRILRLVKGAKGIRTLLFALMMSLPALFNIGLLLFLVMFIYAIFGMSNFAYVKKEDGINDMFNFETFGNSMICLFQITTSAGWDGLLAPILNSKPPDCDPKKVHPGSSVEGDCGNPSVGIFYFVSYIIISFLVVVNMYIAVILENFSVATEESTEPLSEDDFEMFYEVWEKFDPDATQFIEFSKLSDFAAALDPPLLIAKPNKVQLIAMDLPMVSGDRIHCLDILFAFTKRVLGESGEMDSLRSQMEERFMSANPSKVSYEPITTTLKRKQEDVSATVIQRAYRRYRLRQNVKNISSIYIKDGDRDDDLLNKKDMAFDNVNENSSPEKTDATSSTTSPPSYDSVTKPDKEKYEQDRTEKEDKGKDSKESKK
- Experimental Protocol: In vitro inhibitory concentration against Na v1.7 channel expressed in HEK293 cells using Voltage/Ion Probe Reader (VIPR) assay
- Assay type: cell-based
Label key: condition met means IC50 under 4 µM; condition not met means IC50 of 4 µM or more.

Ask | Strictly below 4 µM: is that where IC50 of COc1cccc(C(=O)N2CCCC2)c1OC(C)c1ccccc1 (stereo not given) sits?
Reply | condition not met

Ask | Strictly below 4 µM: is that where IC50 of COc1cccc(C(=O)N2CCCC2)c1OCCc1ccccc1 sits?
Reply | condition not met

Ask | Strictly below 4 µM: is that where IC50 of CCOc1cccc(C(=O)N2CCCC2)c1OCc1csc(-c2ccc(Cl)cc2)n1 sits?
Reply | condition not met

Ask | Strictly below 4 µM: is that where IC50 of O=C(c1ccccc1OCc1csc(-c2ccc(Cl)cc2)n1)N1CCCCCC1 sits?
Reply | condition not met

Ask | Strictly below 4 µM: is that where IC50 of O=C(c1cccc(O)c1OCc1csc(-c2ccc(Cl)cc2)n1)N1CCCC1 sits?
Reply | condition not met

Ask | Strictly below 4 µM: is that where IC50 of COc1cccc(C(=O)N2CCCC2)c1OCc1ccc(-c2cccs2)s1 sits?
Reply | condition met

Ask | Strictly below 4 µM: is that where IC50 of COc1cccc(C(=O)N2CCCC2)c1OCc1csc(-c2ccc(Cl)cc2)n1 sits?
Reply | condition met

Ask | Strictly below 4 µM: is that where IC50 of COc1cccc(C(=O)N2CCCC2)c1OCc1nc(-c2ccc(Cl)cc2)no1 sits?
Reply | condition met

Ask | Strictly below 4 µM: is that where IC50 of COc1cccc(C(=O)N2CCCC2)c1OC(C)c1csc(-c2ccc(Cl)cc2)n1 (stereo not given) sits?
Reply | condition met

Ask | Strictly below 4 µM: is that where IC50 of COc1cccc(C(=O)N2CCCC2)c1OCc1ccc(C(C)(C)C)cc1 sits?
Reply | condition not met

Ask | Strictly below 4 µM: is that where IC50 of COc1cccc(C(=O)N2CCCCCC2)c1OCc1csc(-c2ccc(Cl)cc2)n1 sits?
Reply | condition not met

Ask | Strictly below 4 µM: is that where IC50 of CC(C)(C)Oc1cccc(C(=O)N2CCCC2)c1OCc1csc(-c2ccc(Cl)cc2)n1 sits?
Reply | condition not met

Ask | Strictly below 4 µM: is that where IC50 of COc1cccc(CN2CCCCCCC2)c1OCc1csc(-c2ccc(Cl)cc2)n1 sits?
Reply | condition met

Ask | Strictly below 4 µM: is that where IC50 of CC(C)Oc1cccc(C(=O)N2CCCC2)c1OCc1csc(-c2ccc(Cl)cc2)n1 sits?
Reply | condition not met
